These measurements were taken from ChEMBL document CHEMBL1926530.

biological target: Phosphatidylinositol 4,5-bisphosphate 3-kinase catalytic subunit beta isoform (Homo sapiens, UniProt P42338); assay: Inhibition of recombinant PI3K p110beta using L-alpha-phosphatidylinositol as substrate and [gamma33P]ATP after 60 mins by thin layer chromatographic technique
Sequence (P42338 whole entry, canonical isoform): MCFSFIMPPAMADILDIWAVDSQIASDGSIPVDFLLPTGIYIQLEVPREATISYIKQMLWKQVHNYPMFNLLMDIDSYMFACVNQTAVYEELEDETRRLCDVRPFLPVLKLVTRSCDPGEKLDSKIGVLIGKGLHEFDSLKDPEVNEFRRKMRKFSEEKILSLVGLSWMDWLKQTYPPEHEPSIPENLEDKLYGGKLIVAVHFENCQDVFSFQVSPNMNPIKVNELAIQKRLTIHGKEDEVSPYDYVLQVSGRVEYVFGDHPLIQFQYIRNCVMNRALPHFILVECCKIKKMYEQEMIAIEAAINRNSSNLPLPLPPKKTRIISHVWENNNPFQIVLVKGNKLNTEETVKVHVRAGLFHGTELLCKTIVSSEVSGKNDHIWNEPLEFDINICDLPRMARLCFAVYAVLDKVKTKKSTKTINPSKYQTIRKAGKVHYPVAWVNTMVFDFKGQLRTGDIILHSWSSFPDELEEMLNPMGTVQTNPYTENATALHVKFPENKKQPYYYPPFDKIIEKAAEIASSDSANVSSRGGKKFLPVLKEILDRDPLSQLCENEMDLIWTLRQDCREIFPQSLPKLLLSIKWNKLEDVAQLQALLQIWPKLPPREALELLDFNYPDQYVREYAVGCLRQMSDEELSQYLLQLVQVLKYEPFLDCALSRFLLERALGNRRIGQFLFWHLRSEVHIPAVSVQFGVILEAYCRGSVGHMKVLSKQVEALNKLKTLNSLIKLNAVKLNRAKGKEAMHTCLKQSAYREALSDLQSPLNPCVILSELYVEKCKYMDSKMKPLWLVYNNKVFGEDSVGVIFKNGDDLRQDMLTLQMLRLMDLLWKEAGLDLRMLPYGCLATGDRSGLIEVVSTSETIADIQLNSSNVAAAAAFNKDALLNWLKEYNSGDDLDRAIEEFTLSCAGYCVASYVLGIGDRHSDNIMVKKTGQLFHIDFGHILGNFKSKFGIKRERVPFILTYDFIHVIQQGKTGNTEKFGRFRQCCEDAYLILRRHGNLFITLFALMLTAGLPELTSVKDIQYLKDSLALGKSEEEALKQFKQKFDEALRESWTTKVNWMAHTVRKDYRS
pIC50: −log10 of the molar value.
readoutName: pIC50

Cc1ccc([N+](=O)[O-])cc1CN(C)/N=C/c1cnn2ccc(C#N)cc12: 7.10
Cc1ccc([N+](=O)[O-])cc1S(=O)(=O)N(CCN1CCOCC1)/N=C/c1cnn2ccc(C#N)cc12: 6.64
CN(/N=C/c1cnn2ccc(C#N)cc12)S(=O)(=O)c1cc([N+](=O)[O-])ccc1F: 7.36

P = CN(/N=C/c1cnn2ccc(C#N)cc12)C(=O)c1cccc([N+](=O)[O-])c1
Q = Cc1cccc([N+](=O)[O-])c1S(=O)(=O)N(C)/N=C/c1cnn2ccc(C#N)cc12
# input For the two items P and Q , which reports the higher pIC50 value? The response must carry the label of the picked entry.
# output P
(P: 7.17, Q: 6.47)
